run_description: Simulation of intestinal absorption using a dialysis membrane (3 kDa) after in vitro SGD
experimental_setup: pig
Listed next: entries and their corresponding Concentration, dialysis phase (D).
measured_property: Concentration, dialysis phase (D) (ng/mL)

# compound, measured_property, measurement
data = [
    ("O=C(CCc1ccc(O)cc1)c1c(O)cc(O)cc1O", "Concentration, dialysis phase (D)", 26350),
    ("C[C@@H]1O[C@@H](O[C@H]2[C@H](Oc3cc(O)c4c(c3)O[C@H](c3ccc(O)cc3)CC4=O)O[C@H](CO)[C@@H](O)[C@@H]2O)[C@H](O)[C@H](O)[C@H]1O", "Concentration, dialysis phase (D)", 17290),
    ("O=C1C[C@@H](c2ccc(O)cc2)Oc2cc(O)cc(O)c21 [NAR, (+)-naringenin]", "Concentration, dialysis phase (D)", 17500),
    ("Oc1cc(O)cc(O)c1", "Concentration, dialysis phase (D)", 555310),
]

----------
run_description: In vitro simulated gastrointestinal digestion (SGD, INFOGEST 2.0): concentration and bioaccessibility by UHPLC-DAD-MSn
experimental_setup: 2 min
Marks after values point to notes of the source that are not given here.

# compound, Bioaccessibility (%), oral phase (O)
rows = [
    ("O=C(CCc1ccc(O)cc1)c1c(O)cc(O)cc1O", "96.46 ± 10.69^ a %"),
    ("O=C1C[C@@H](c2ccc(O)cc2)Oc2cc(O)cc(O)c21 [NAR, (+)-naringenin]", "97.26 ± 5.50%"),
    ("O=c1c(O)c(-c2ccc(O)c(O)c2)oc2cc(O)cc(O)c12", "57.23 ± 6.98^ b %"),
    ("C[C@@H]1O[C@@H](O[C@H]2[C@H](Oc3cc(O)c4c(c3)O[C@H](c3ccc(O)cc3)CC4=O)O[C@H](CO)[C@@H](O)[C@@H]2O)[C@H](O)[C@H](O)[C@H]1O", "133.20 ± 16.03^ a %"),
    ("O=C(O[C@@H]1Cc2c(O)cc(O)cc2O[C@@H]1c1cc(O)c(O)c(O)c1)c1cc(O)c(O)c(O)c1 [EGCG, epigallocatechin-3-O-gallate]", "38.16 ± 12.23^ b %"),
    ("O=c1cc(-c2ccc(O)cc2)oc2cc(O)cc(O)c12", "127.10 ± 1.17 ^a,b %"),
    ("Oc1cc(O)cc(O)c1", "92.78 ± 5.91^ b %"),
]

----------
Listed next: entries and their corresponding Concentration, gastric phase (G).
run_description: In vitro simulated gastrointestinal digestion (SGD, INFOGEST 2.0): concentration and bioaccessibility by UHPLC-DAD-MSn
experimental_setup: controls (without enzymes); gastric phase
Method: Preliminary solubility tests in different solvents, namely water, sodium phosphate buffer (26.8 mM, pH 6.1), ethanol, and also a mixture of ethanol with both water and sodium phosphate buffer, were carried out for each PC (data not shown), to prevent erroneous data arising from compounds precipitation. […] The values of B% and IA% were the average of the three replicates performed, with the calculated standard deviation. […]

# molecule, Concentration, gastric phase (G) [µg/mL]
measured = [
    ("O=C1C[C@@H](c2ccc(O)cc2)Oc2cc(O)cc(O)c21 [NAR, (+)-naringenin]", 301.86),
    ("C[C@@H]1O[C@@H](OC[C@H]2O[C@@H](Oc3c(-c4ccc(O)c(O)c4)oc4cc(O)cc(O)c4c3=O)[C@H](O)[C@@H](O)[C@@H]2O)[C@H](O)[C@H](O)[C@H]1O", 317.06),
    ("O=C(CCc1ccc(O)cc1)c1c(O)cc(O)cc1O", 264.55),
    ("O=c1cc(-c2ccc(O)cc2)oc2cc(O)cc(O)c12", 1.42),
    ("C[C@@H]1O[C@@H](O[C@H]2[C@H](Oc3cc(O)c4c(c3)O[C@H](c3ccc(O)cc3)CC4=O)O[C@H](CO)[C@@H](O)[C@@H]2O)[C@H](O)[C@H](O)[C@H]1O", 332.53),
    ("O=C(O[C@@H]1Cc2c(O)cc(O)cc2O[C@@H]1c1cc(O)c(O)c(O)c1)c1cc(O)c(O)c(O)c1 [EGCG, epigallocatechin-3-O-gallate]", 1272.99),
    ("Oc1cc(O)cc(O)c1", 4765.51),
    ("O=c1c(-c2ccc(O)cc2)coc2cc(O)ccc12", 12.89),
]

----------
run_description: In vitro simulated gastrointestinal digestion (SGD, INFOGEST 2.0): concentration and bioaccessibility by UHPLC-DAD-MSn
experimental_setup: samples with enzymes; after oral digestion
Protocol: Preliminary solubility tests in different solvents, namely water, sodium phosphate buffer (26.8 mM, pH 6.1), ethanol, and also a mixture of ethanol with both water and sodium phosphate buffer, were carried out for each PC (data not shown), to prevent erroneous data arising from compounds precipitation. […] The values of B% and IA% were the average of the three replicates performed, with the calculated standard deviation. […]

# molecule, result_unit, Concentration, oral phase (O)
records = [
    ("O=c1oc2c(O)c(O)cc3c(=O)oc4c(O)c(O)cc1c4c23 [EA, ellagic acid]", "µg/mL", 4.78),
    ("O=C1C[C@@H](c2ccc(O)cc2)Oc2cc(O)cc(O)c21 [NAR, (+)-naringenin]", "µg/mL", 347.95),
    ("Oc1cc(O)cc(O)c1 [PG, phloroglucinol]", "µg/mL", 4841.66),
    ("C[C@@H]1O[C@@H](OC[C@H]2O[C@@H](Oc3c(-c4ccc(O)c(O)c4)oc4cc(O)cc(O)c4c3=O)[C@H](O)[C@@H](O)[C@@H]2O)[C@H](O)[C@H](O)[C@H]1O [RUT, rutin]", "µg/mL", 281.60),
    ("O=c1c(O)c(-c2ccc(O)c(O)c2)oc2cc(O)cc(O)c12 [QUE, quercetin]", "µg/mL", 22.83),
    ("O=c1c(-c2ccc(O)cc2)coc2cc(O)ccc12 [DAID, daidzein]", "µg/mL", 21.63),
    ("O=C(CCc1ccc(O)cc1)c1c(O)cc(O)cc1O [PH, phloretin]", "µg/mL", 278.19),
    ("O=c1cc(-c2ccc(O)cc2)oc2cc(O)cc(O)c12 [APG, apigenin]", "µg/mL", 11.86),
    ("O=C(O[C@@H]1Cc2c(O)cc(O)cc2O[C@@H]1c1cc(O)c(O)c(O)c1)c1cc(O)c(O)c(O)c1 [EGCG, epigallocatechin-3-O-gallate]", "µg/mL", 789.50),
]

----------
run_description: In vitro simulated gastrointestinal digestion (SGD, INFOGEST 2.0): concentration and bioaccessibility by UHPLC-DAD-MSn
experimental_setup: samples; initial solution, reference
Marks after values point to notes of the source that are not given here.
Listed next: entries and their corresponding Bioaccessibility (%), initial solution (IS).
measured_property: Bioaccessibility (%), initial solution (IS)

# compound, measurement
measured = [
    ("O=c1c(-c2ccc(O)cc2)coc2cc(O)ccc12", "100^ a %"),
    ("O=c1cc(-c2ccc(O)cc2)oc2cc(O)cc(O)c12", "100 ^b %"),
    ("O=C1C[C@@H](c2ccc(O)cc2)Oc2cc(O)cc(O)c21 [NAR, (+)-naringenin]", "100%"),
    ("C[C@@H]1O[C@@H](O[C@H]2[C@H](Oc3cc(O)c4c(c3)O[C@H](c3ccc(O)cc3)CC4=O)O[C@H](CO)[C@@H](O)[C@@H]2O)[C@H](O)[C@H](O)[C@H]1O", "100 ^a %"),
    ("O=C(CCc1ccc(O)cc1)c1c(O)cc(O)cc1O", "100^ a %"),
]

----------
run_description: Simulation of intestinal absorption using a dialysis membrane (3 kDa) after in vitro SGD

# compound, Concentration, dialysis phase (D)
rows = [
    ("O=C1C[C@@H](c2ccc(O)cc2)Oc2cc(O)cc(O)c21 [NAR, (+)-naringenin]", "3290 ± 960 ng/mL"),
    ("Oc1cc(O)cc(O)c1", "225290 ± 125330 ng/mL"),
    ("O=C(CCc1ccc(O)cc1)c1c(O)cc(O)cc1O", "17180 ± 2010 ng/mL"),
    ("C[C@@H]1O[C@@H](O[C@H]2[C@H](Oc3cc(O)c4c(c3)O[C@H](c3ccc(O)cc3)CC4=O)O[C@H](CO)[C@@H](O)[C@@H]2O)[C@H](O)[C@H](O)[C@H]1O", "4460 ± 440 ng/mL"),
]

----------
run_description: In vitro simulated gastrointestinal digestion (SGD, INFOGEST 2.0): concentration and bioaccessibility by UHPLC-DAD-MSn
experimental_setup: samples with enzymes; oral phase

# compound, Bioaccessibility (%), oral phase (O)
rows = [
    ("O=C1C[C@@H](c2ccc(O)cc2)Oc2cc(O)cc(O)c21 [NAR, (+)-naringenin]", 97.26),
    ("O=C(CCc1ccc(O)cc1)c1c(O)cc(O)cc1O", 96.46),
    ("O=c1c(O)c(-c2ccc(O)c(O)c2)oc2cc(O)cc(O)c12", 57.23),
    ("C[C@@H]1O[C@@H](O[C@H]2[C@H](Oc3cc(O)c4c(c3)O[C@H](c3ccc(O)cc3)CC4=O)O[C@H](CO)[C@@H](O)[C@@H]2O)[C@H](O)[C@H](O)[C@H]1O", 133.2),
    ("Oc1cc(O)cc(O)c1", 92.78),
    ("O=C(O[C@@H]1Cc2c(O)cc(O)cc2O[C@@H]1c1cc(O)c(O)c(O)c1)c1cc(O)c(O)c(O)c1 [EGCG, epigallocatechin-3-O-gallate]", 38.16),
    ("O=c1cc(-c2ccc(O)cc2)oc2cc(O)cc(O)c12", 127.10),
]
